# target: Serine protease HTRA1 (Homo sapiens)
# protocol-notes: inhibition of human HTRA1 peptidase – biochemical, fluorescence polarization, HTS, primary screen (AID 504803);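 further: 0% = enzyme with DMSO and 100% = wells lacking enzyme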
# stated-conditions: recombinant HTRA1, FP-rhodamine activity-based probe, at 5.96 µM, active compounds read high
About 1,700 (0.5%) of roughly 340,000 compounds were called active. Shown is part of a subset that was picked to be rich in actives.
metric-name: inhibition (%)
Express the result in % but write the number alone.

IN: I am curious: what inhibition value has been reported for COc1ccc(CN2C(=O)C(CC(=O)NCCCCc3ccccc3)CC(C(=O)N3CCOCC3)=C2C)cc1 (stereo not given) ?
OUT: 5.2

IN: # repeat for `COc1cc(C)c(CN2CCN(C(=O)CCC(=O)c3ccc(C)s3)CC2)cc1OC`
OUT: 6.95

IN: Same lookup for `CCc1nnc(SCc2cccc(F)c2)nc1CC` , please.
OUT: -3.55

IN: // query: CCC(Oc1ccccc1)C(=O)OCC(=O)Nc1c(C)nn(-c2ccccc2)c1C (stereo not given)
OUT: -6.47

IN: How about `Oc1ccc(CNc2ccccc2O)cc1` ?
OUT: 52.1

IN: Now consider `Cc1cc(C(=O)N/N=C/c2ccc(O)c([N+](=O)[O-])c2)c(C)n1-c1ccc(F)cc1` .
OUT: 45.1

IN: What about `Cc1ccc(C(=O)N[C@H](C(=O)N2CCN(c3ncccn3)CC2)C(C)C)cc1` ?
OUT: 5.28

IN: Also, `O=S(=O)(NCCNS(=O)(=O)c1ccccc1)c1ccccc1` please.
OUT: 4.81

IN: Next entry: `C[C@H]1CN([C@@H](C)CO)C(=O)c2cc(C3=CCCCC3)cnc2O[C@@H]1CN(C)C(=O)Cc1ccccc1`
OUT: -0.1

IN: Moving on to `O=[N+]([O-])c1ccc(C(S(=O)(=O)Cc2ccccc2)S(=O)(=O)Cc2ccccc2)cc1`
OUT: -1.31

Continuing:
IN: Any idea what inhibition was measured for `Cc1ccc(S(=O)(=O)NCCC(=O)OCC(=O)N(C)c2ccccc2)cc1` ?
OUT: 5.9

IN: Try the molecule `CCN1C(=O)[C@H]2[C@@H](c3ccccc3)N[C@]3(CCCN(Cc4ccc(C)cc4)C3=O)[C@H]2C1=O`
OUT: -0.19

IN: Try the molecule `NS(=O)(=O)c1ccc(CNC(=O)c2cc(S(=O)(=O)N3CCOCC3)ccc2N2CCCC2)cc1`
OUT: 0.13

IN: Another molecule: `Cc1cc(C(=O)COC(=O)C2CC2)c(C)n1-c1ccc(F)cc1`
OUT: 4.47

IN: Also Cc1ccc(-c2ccc(CN3C(C)C(=O)N(Cc4cn(CCC5OCCCO5)nn4)CCS3(=O)=O)cc2)cc1 (stereo not given) , if possible.
OUT: -6.77

* * *

# target: Serine protease HTRA1 (Homo sapiens)
# protocol-notes: inhibition of human HTRA1 peptidase – biochemical, fluorescence polarization, HTS, primary screen (AID 504803);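 further: 0% = enzyme with DMSO and 100% = wells lacking enzyme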
# stated-conditions: recombinant HTRA1, FP-rhodamine activity-based probe, at 5.96 µM, active compounds read high
About 1,700 (0.5%) of roughly 340,000 compounds were called active. The sample holds actives, similar compounds and a random draw of the others, so the mix is not that of the screen.
metric-name: inhibition (%)
I only need the number, in %, no unit after it.

Solved cases (5 shown):
IN: Entry `C[C@H]1CN([C@@H](C)CO)C(=O)CCCn2nncc2CO[C@@H]1CN(C)Cc1ccc(Oc2ccccc2)cc1` has what inhibition?
OUT: -3.08

IN: # iterate: COc1ccc(NC(=O)COC(=O)C2COc3ccccc3O2)cc1 (configuration not stated)
OUT: -2.75

IN: # repeat for `O=C(OCc1cn([C@H]2C[C@H](c3ccccc3)N(C(=O)c3cccs3)C[C@@H]2O)nn1)c1ccccc1`
OUT: -11.7

IN: Do the same for O=C(NCCc1cccc(F)c1)C1CC(O)CN1C(=O)Nc1ccccc1 (configuration not stated) please
OUT: 0.16

IN: Also `Cc1ccc(CN2CCN(c3ncccn3)CC2)c(C)c1` , if possible.
OUT: -5.09

More entries:
IN: Can you share its inhibition? I mean this molecule: CC(C)CC1C(=O)N(Cc2cn(Cc3ccco3)nn2)CCS(=O)(=O)N1Cc1ccc(-c2ccc(Cl)c(Cl)c2)cc1 (configuration not stated)
OUT: -109

IN: For CCCCN1C(=O)C(CC(=O)NCc2cccs2)CC(C(=O)N2CCOCC2)=C1C (configuration not stated) then?
OUT: 1.73

IN: Now the same for `O=C(C[C@H]1C[C@H]2c3cc(NS(=O)(=O)c4ccc(F)cc4)ccc3O[C@H]2[C@H](CO)O1)NCc1cc(F)ccc1F`
OUT: -9.74

IN: Moving on to CCc1ccc2c(c1)C1(NN=C(c3ccccc3)S1)C(=O)N2 (configuration not stated)
OUT: 60.5

IN: Next record, please: `Cc1ccc(Nc2nc(-c3ccc(O)cc3O)cs2)nc1`
OUT: 37.1

IN: Repeat for the following molecule: `Oc1c(CN2CCN(c3ccc(F)cc3)CC2)cc(Cl)c2cccnc12`
OUT: 50.4

IN: Would you mind doing `Nc1ccc(Nc2ccccc2)cc1` as well?
OUT: 69
